- TESTED ON: T1, HLA-B*44:05 (human)
- T1 construct: also called peptide-receptive MHC class I molecule
- METHOD: UV peptide exchange, anti-b2m ELISA
MEASURED METRIC: peptide exchange yield

Sample answers from the record:
Name the recorded peptide exchange yield of the item CDAQIQYSY in your answer.
50 to 75%

Name the recorded peptide exchange yield of the item VELMFPLLL in your answer.
50 to 75%

Name the recorded peptide exchange yield of the item AEDLEKKYA in your answer.
20 to 50%

Name the recorded peptide exchange yield of the item LENPHVQSV in your answer.
50 to 75%

Name the recorded peptide exchange yield of the item AEHPDFSPCSF in your answer.
50 to 75%

Name the recorded peptide exchange yield of the item MESAKETRY in your answer.
50 to 75%

***
Name the recorded peptide exchange yield of the item AEKNRRDAETW in your answer.
> 75%

Name the recorded peptide exchange yield of the item IEAPKLMVV in your answer.
10 to 20%

The reported measurements were obtained from patent US20200087363A1.
